SYSTEM: Protein deacetylase HDAC6 (Homo sapiens) (UniProt Q9UBN7)
RUN CONDITIONS: at 10 µM
Out of some 5,600 compounds screened, about 390 (7%) showed an effect of 50% or more. Only a selection was taken, and strong results are over-represented in it overall.
If the reported inhibition equals or exceeds 10%, assign Satisfied. If not, assign Not satisfied.

- CCC(CC)C(c1ccc(Nc2nc3ccccc3s2)cc1)n1cncn1 (configuration not stated): Satisfied
- COc1ccc2cc(-c3cc(-c4cc(Cl)cc(Cl)c4)nn3[C@@H](C)c3ccc(C(=O)NCCC(=O)O)cc3)ccc2c1: Satisfied
- Cn1nnc(-c2ccc(-c3ccc(N4C[C@H](COP(=O)(O)O)OC4=O)cc3F)cn2)n1: Not satisfied
- Cc1cccc(NC(=O)N[C@@H]2N=C(c3ccccc3)c3ccccc3N(C)C2=O)c1: Satisfied
- C[C@@H]1CC2C3CCC4=CC(=O)C=C[C@]4(C)[C@@]3(F)[C@@H](O)C[C@]2(C)[C@H]1C(=O)CO (some centres not stated): Not satisfied
- Cc1[nH]cnc1-c1ccc(Cl)cc1: Satisfied
- O=C(O)C1CCC(c2cc3cccnc3c(-c3cccc(F)c3)n2)CC1 (configuration not stated): Not satisfied
- O=C1c2ccccc2CCC1CNCCc1ccc(O)cc1 (configuration not stated): Not satisfied

(Q) # bool: inhibition of "CCC(CC)n1ccc2c(C(=O)NCc3c(C)cc(C)[nH]c3=O)cc(C#N)cc21" >= 10%
(A) Satisfied

###

I'd be grateful if you could share measured inhibition for these entries.
SYSTEM: Protein deacetylase HDAC6 (Homo sapiens) (UniProt Q9UBN7)
Sequence (whole entry): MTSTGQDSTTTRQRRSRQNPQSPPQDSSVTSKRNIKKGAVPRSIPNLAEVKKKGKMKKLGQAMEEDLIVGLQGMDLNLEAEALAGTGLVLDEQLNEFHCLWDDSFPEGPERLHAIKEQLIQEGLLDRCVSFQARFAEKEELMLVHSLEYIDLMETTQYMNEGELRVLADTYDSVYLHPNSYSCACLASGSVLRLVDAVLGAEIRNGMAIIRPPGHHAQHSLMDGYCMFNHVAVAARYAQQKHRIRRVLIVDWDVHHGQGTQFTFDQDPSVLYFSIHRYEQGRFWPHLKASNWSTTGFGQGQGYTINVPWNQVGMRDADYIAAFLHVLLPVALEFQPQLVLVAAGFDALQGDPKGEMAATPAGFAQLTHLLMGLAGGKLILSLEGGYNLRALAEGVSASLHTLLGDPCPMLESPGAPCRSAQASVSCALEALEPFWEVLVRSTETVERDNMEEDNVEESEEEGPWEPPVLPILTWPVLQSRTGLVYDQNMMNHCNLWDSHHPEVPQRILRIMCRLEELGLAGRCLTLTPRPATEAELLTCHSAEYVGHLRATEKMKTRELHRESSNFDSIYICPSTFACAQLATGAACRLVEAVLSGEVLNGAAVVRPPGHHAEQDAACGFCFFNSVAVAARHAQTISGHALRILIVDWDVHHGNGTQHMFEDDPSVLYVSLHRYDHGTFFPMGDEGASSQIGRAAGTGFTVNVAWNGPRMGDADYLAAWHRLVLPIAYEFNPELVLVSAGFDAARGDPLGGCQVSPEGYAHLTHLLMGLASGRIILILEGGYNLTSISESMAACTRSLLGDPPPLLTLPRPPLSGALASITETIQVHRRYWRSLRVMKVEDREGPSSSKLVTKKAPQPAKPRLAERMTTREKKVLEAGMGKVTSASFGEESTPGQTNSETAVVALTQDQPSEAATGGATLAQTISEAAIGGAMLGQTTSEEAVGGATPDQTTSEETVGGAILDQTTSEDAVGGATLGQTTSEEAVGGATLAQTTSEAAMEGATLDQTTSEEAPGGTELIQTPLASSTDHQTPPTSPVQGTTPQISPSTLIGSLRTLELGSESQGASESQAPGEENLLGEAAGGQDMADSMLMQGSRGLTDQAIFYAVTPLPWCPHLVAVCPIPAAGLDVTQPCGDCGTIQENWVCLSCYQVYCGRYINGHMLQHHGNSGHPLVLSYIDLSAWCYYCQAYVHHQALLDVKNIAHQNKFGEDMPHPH
RUN CONDITIONS: at 10 µM
The whole screen tested about 5,600 compounds, of which about 390 (7%) showed an effect of 50% or more. The sample as a whole holds a higher share of strong results than the screen did.
One number for each entry, in %.

Solved cases below.
* N#CC[C@@H](C1CCCC1)n1cc(-c2ncnc3[nH]ccc23)cn1 | -2.44
* O=C1N[C@@H]2[C@@H](O)[C@@H](O)[C@H](O)[C@@H](CO)N2C1=O | -6.81
* CN(C)CCCSc1ccccc1NC(=O)/C=C/c1ccccc1 | 97.2

Give me inhibition for each of these compounds, listed below.
1. O=C(Nc1cc(C(F)(F)F)cc(C(F)(F)F)c1)Nc1c(Br)cc(Br)cc1-c1nnn[nH]1
2. CC(=O)N[C@H](C=O)[C@@H](O)[C@H](O)[C@H](O)CO
3. C[C@@H]1C(=O)O[C@H]2CC34[C@H]5C[C@@H](C(C)(C)C)C36[C@@H](OC(=O)[C@@H]6O)O[C@@]4(C(=O)O5)[C@]21O (stereo partly specified)
4. CCc1oc2ccccc2c1C(=O)c1ccc(OCC(=O)O)cc1
5. CCCc1ccc(C(=O)O)cc1
6. O=C(O)CCc1ccc(NCc2cccc3c2CCCN3CCOc2ccccc2)cc1F

(A)
[0.45, 19.4, 26.8, -6.7, 29.1, 8.07]

Give measured inhibition for every item shown.
1. COC(=O)N[C@@H](C)CNc1nccc(-c2cn(C(C)C)nc2-c2cc(Cl)cc(NS(C)(=O)=O)c2F)n1
2. NS(=O)(=O)c1ccc2c(c1)C1C=CCC1C(c1ccc(Br)cc1)N2 (stereo unspecified)
3. CC(C)[C@@H](C)/C=C/[C@@H](C)[C@H]1CC[C@H]2C3=CC=C4C[C@@H](O)CC[C@]4(C)[C@H]3CC[C@]12C
4. CCN(CC)CCCCC(NC(=O)c1ccc([N+](=O)[O-])cc1)c1ccccc1 (stereo unspecified)
5. Fc1ccc(C(c2ccccc2)(c2ccccc2F)n2ccnc2)cc1 (stereo unspecified)
6. c1ccc2c(c1)Nc1ccccc1S2
7. CCc1ccc(C2=CC(C)(C)Sc3ccc(C#Cc4ccc(C(=O)O)cc4)cc32)cc1

(A)
1: -2.53; 2: 8.71; 3: 26.6; 4: -1.83; 5: -9.89; 6: 74.6; 7: 63

Source of measurements: ChEMBL document CHEMBL4808148
